The reported numbers originate from PubChem BioAssay (NCI).

- Tested on: NCI/ADR-RES ovarian
- protocol-summary: NCI tumour cell line growth inhibition, 48 h
Collected TGI values appear next to each entry.

// known answers, use as guide
compound	TGI
CCOC(=O)CCN1C(=O)c2ccc(NC(=O)C(=O)O)cc2S1(=O)=O	> 100 µM
O=c1[nH]nc(Cc2ccccc2)n1N=C1CCCCC1	> 100 µM
O=C1CC2(CCCc3sccc32)C(=O)N1 (stereo unspecified)	> 100 µM
C=C1C(=O)OC2C1C(OC(=O)/C(C)=C/C)CC(O)(CCl)C1C(OC(C)=O)C=C(C)C21O (stereo unspecified)	61 µM
CN(O)C(=O)c1ccc(OCc2cccc(Cl)c2)cc1	> 89.4 µM
OCc1ccc(N(Cc2ccc(F)cc2)C2CCC2)cc1Cl	27.8 µM
NS(=O)(=O)c1ccc(NC(=S)/N=C/c2c(O)c3ccccc3[nH]c2=O)cc1	> 100 µM
Nc1c(O)c2c(c(O)c1Cl)C(=O)C=CC2=O	> 32.6 µM

Input: Please look at this compound and report its TGI: `COC(=O)/C=C1\SC(=Nc2ccc(C(F)(F)F)cc2)N(CCc2c[nH]c3ccccc23)C1=O`
Output: 4.31 µM

Input: Please look at this compound and report its TGI: `O=[N+]([O-])/C(C(Cl)=C(Cl)Cl)=C(\Nc1cccc2cccnc12)Sc1ccccc1`
Output: 63.5 µM

====

Collected TGI values appear next to each entry.
- Tested on: SK-MEL-2 melanoma
- protocol-summary: NCI tumour cell line growth inhibition, 48 h

// known answers, use as guide
compound	assay-metric	measured-value
COc1cccc2c1C(=O)c1c(O)c3c(c(O)c1C2=O)CC(O)(C(C)=O)CC3OC1CC([N+](C)(C)C)C(O)C(C)O1 (centres undefined)	TGI	> 100 µM
Nc1nc(SCC(=O)O)[nH]c(=O)c1N	TGI	> 100 µM
CCOC(=O)C(C)c1nc2cc(F)c(N3CCOCC3)cc2[nH]c1=O (centres undefined)	TGI	> 100 µM
CC(=O)C(C(=N)C#N)C(=O)Nc1ccccc1 (centres undefined)	TGI	> 100 µM
Nc1c(O)c2c(c(O)c1Cl)C(=O)C=CC2=O	TGI	23.8 µM

Input: Please look at this compound and report its TGI: C[C@@H]1C(=O)O[C@@H]2C[C@@]1(C)[C@@H]1C(=O)C3(O)OC14C2(C)OC(=O)[C@@]4(O)CCC1C3C(O)C=C2CC=CC(=O)[C@@]21C (some centres undefined)
Output: 62.9 µM

Input: Please look at this compound and report its TGI: `CCCCCCCCCCCCOCCCCCCCCC/C=C/c1ccc2c(c1)OCCOCCOCCOCCO2`
Output: 30.2 µM

====

- Test system: RPMI-8226 leukemia
- protocol-summary: NCI tumour cell line growth inhibition, 48 h
assay-metric: GI50

c1ccc(Oc2c3ccccc3nc3ccccc23)cc1 4.75 µM

Input: Please look at this compound and report its GI50: `OCc1ccc(N(Cc2ccc(F)cc2)C2CCC2)cc1Cl`
Output: 3.03 µM

Input: Please look at this compound and report its GI50: `Cn1cc(-c2nc(-c3c[nH]c4ncccc34)cs2)c2cc(Cl)ccc21`
Output: 4.87 µM

====

- Tested on: M19-MEL melanoma
- protocol-summary: NCI tumour cell line growth inhibition, 48 h
assay-metric: TGI

// known answers, use as guide
compound	target-or-test-system	assay-metric	measured-value
COC1CCC2C(=O)CCCC2O1 (centres undefined)	M19-MEL melanoma	TGI	> 100 µM
N#CC12CCC(O)C(CC1)C2=O (centres undefined)	M19-MEL melanoma	TGI	> 100 µM
O=C1C2c3[nH]c4ccccc4c3C3CCSCC3C2C(=O)N1c1ccccc1 (centres undefined)	M19-MEL melanoma	TGI	> 100 µM
Cc1cc(N(CCC#N)CCC#N)ccc1N=Nc1ccccc1[N+](=O)[O-]	M19-MEL melanoma	TGI	> 100 µM

Input: Please look at this compound and report its TGI: COC(=O)C(=O)C(C(=O)C(=O)Nc1ccc([N+](=O)[O-])cc1[N+](=O)[O-])c1nc2ccc([N+](=O)[O-])cc2[nH]c1=O (centres undefined)
Output: > 100 µM

Input: Please look at this compound and report its TGI: `O=C(Nc1ccccc1)O/N=C1/CCCC/C1=C\c1ccccc1`
Output: 34 µM

Input: Please look at this compound and report its TGI: CCCOP1(=O)C=C(C)C(Cl)=C(C)C1 (centres undefined)
Output: 52.7 µM

Input: Please look at this compound and report its TGI: `O=C(c1ccccc1)c1ccc2cccc(O)c2n1`
Output: > 100 µM

Input: Please look at this compound and report its TGI: `COc1c2c(c(OC)c3c(=O)cc(C/C(=N/NC(=O)C[n+]4ccccc4)C(=O)Nc4cc(C)ccc4C)oc13)OCO2`
Output: > 100 µM
